- Test system: Enterococcus sp.
- testProtocol: in vitro antibacterial evaluation, MIC by broth dilution
- Type: cell-based
- runParameters: broth dilution, 18 hours at 35° C.; strain GC 4556
parameter: MIC Enterococcus faecium (GC 4556) (µg/mL)
Dear colleague, please return just the value in µg/mL, with no unit written.

CC(c1ccccc1)C1NC(=O)CNC(=O)C(CO)NC(=O)C(C(O)C2CNC(=N)N2C2OC(CO)C(O)C(O)C2O)NC(=O)C(C(O)C2CNC(=N)N2)NC(=O)C(Cc2ccc(OC3OC(CO)C(OC4OC5COC(Cc6ccc(F)cc6)OC5C(O)C4O)C(O)C3O)cc2)NC1=O (stereo not shown) ... 2

What value of MIC Enterococcus faecium (GC 4556) has been recorded for this entry: COc1ccc(COCC2OC(OC3C(CO)OC(Oc4ccc(CC5NC(=O)C(C(C)c6ccccc6)NC(=O)CNC(=O)C(CO)NC(=O)C(C(O)C6CNC(=N)N6C6OC(CO)C(O)C(O)C6O)NC(=O)C(C(O)C6CNC(=N)N6)NC5=O)cc4)C(O)C3O)C(O)C(O)C2O)cc1OCc1ccccc1 (stereo not shown) 4

Next compound up: CCC(CC)C1OCC2OC(OC3C(CO)OC(Oc4ccc(CC5NC(=O)C(C(C)c6ccccc6)NC(=O)CNC(=O)C(CO)NC(=O)C(C(O)C6CNC(=N)N6C6OC(CO)C(O)C(O)C6O)NC(=O)C(C(O)C6CNC(=N)N6)NC5=O)cc4)C(O)C3O)C(O)C(O)C2O1 (stereo not shown) 2

Same for CC(c1ccccc1)C1NC(=O)CNC(=O)C(CO)NC(=O)C(CC2CNC(=N)N2C2OC(CO)C(O)C(O)C2O)NC(=O)C(CC2CNC(=N)N2)NC(=O)C(Cc2ccc(OC3OC(CO)C(OC4OC(COCc5ccc(OCc6ccccc6)cc5)C(O)C(O)C4O)C(O)C3O)cc2)NC1=O (stereo not shown) 16

====

Recorded measurements of MIC Streptococcus agalactiae (GC 4564), one per entry
- System: Streptococcus sp.
- testProtocol: in vitro antibacterial evaluation, MIC by broth dilution
- Type: cell-based
- runParameters: strain GC 4564; broth dilution, 18 hours at 35° C.

Previously resolved entries follow.
CC(c1ccccc1)C1NC(=O)CNC(=O)C(CO)NC(=O)C(C(O)C2CNC(=N)N2C2OC(CO)C(O)C(O)C2O)NC(=O)C(C(O)C2CNC(=N)N2)NC(=O)C(Cc2ccc(OC3OC(CO)C(OC4OC5COC(c6ccc(C=Cc7ccccc7)cc6)OC5C(O)C4O)C(O)C3O)cc2)NC1=O (stereo not shown) ... <0.06 µg/mL
COc1cc(OC)cc(C2OC3C(OC4C(CO)OC(Oc5ccc(CC6NC(=O)C(C(C)c7ccccc7)NC(=O)CNC(=O)C(CO)NC(=O)C(C(O)C7CNC(=N)N7C7OC(CO)C(O)C(O)C7O)NC(=O)C(C(O)C7CNC(=N)N7)NC6=O)cc5)C(O)C4O)OC(CO)C(O)C3O2)c1 (stereo not shown) [Example 150a] ... 32 µg/mL
CC(c1ccccc1)C1NC(=O)CNC(=O)C(CO)NC(=O)C(C(O)C2CNC(=N)N2C2OC(CO)C(O)C(O)C2O)NC(=O)C(C(O)C2CNC(=N)N2)NC(=O)C(Cc2ccc(OC3OC(CO)C(OC4OC5COC(c6cccc(Oc7ccccc7)c6)OC5C(O)C4O)C(O)C3O)cc2)NC1=O (stereo not shown) ... <0.06 µg/mL

Now let's try a different one.
Look up MIC Streptococcus agalactiae (GC 4564) for this compound: COc1cc(OC)cc(C2OCC3OC(OC4C(CO)OC(Oc5ccc(CC6NC(=O)C(C(C)c7ccccc7)NC(=O)CNC(=O)C(CO)NC(=O)C(C(O)C7CNC(=N)N7C7OC(CO)C(O)C(O)C7O)NC(=O)C(C(O)C7CNC(=N)N7)NC6=O)cc5)C(O)C4O)C(O)C(O)C3O2)c1 (stereo not shown) 1 µg/mL

====

- System: Staphylococcus sp.
- testProtocol: in vitro antibacterial evaluation, MIC by broth dilution
- Type: cell-based
- runParameters: strain GC 4541; broth dilution, 18 hours at 35° C.
Lab note - cut at 20 µg/mL for MIC Staphylococcus aureus (GC 4541): 1 if strictly below, 0 if not.

Solved cases (5 shown):
CC(c1ccccc1)C1NC(=O)CNC(=O)C(CO)NC(=O)C(C(O)C2CNC(=N)N2C2OC(CO)C(O)C(O)C2O)NC(=O)C(C(O)C2CNC(=N)N2)NC(=O)C(Cc2ccc(OC3OC(CO)C(OC4OC5COC6(CC7CCC6(C)C7(C)C)OC5C(O)C4O)C(O)C3O)cc2)NC1=O (stereo not shown) [Example 214] ... 1
CC(c1ccccc1)C1NC(=O)CNC(=O)C(CO)NC(=O)C(C(O)C2CNC(=N)N2C2OC(CO)C(O)C(O)C2O)NC(=O)C(C(O)C2CNC(=N)N2)NC(=O)C(Cc2ccc(OC3OC(CO)C(OC4OC(COC(=O)C(c5ccccc5)c5ccccc5)C(O)C(O)C4O)C(O)C3O)cc2)NC1=O (stereo not shown) [Example 96c] ... 1
CC(c1ccccc1)C1NC(=O)CNC(=O)C(CO)NC(=O)C(C(O)C2CN(c3nc4ccccc4o3)C(=N)N2C2OC(CO)C(O)C(O)C2O)NC(=O)C(C(O)C2CNC(=Nc3nc4ccccc4o3)N2)NC(=O)C(Cc2ccc(OC3OC(CO)C(OC4OC5COC6(OC5C(O)C4O)C4CC5CC(C4)CC6C5)C(O)C3O)cc2)NC1=O (stereo not shown) [Example 227] ... 0
N=C1NCC(C(O)C2NC(=O)C(Cc3ccc(OC4OC(CO)C(OC5OC6COC(Cc7ccccc7)OC6C(O)C5O)C(O)C4O)cc3)NC(=O)C(CC3CCCCC3)NC(=O)CNC(=O)C(CO)NC(=O)C(C(O)C3CNC(=N)N3C3OC(CO)C(O)C(O)C3O)NC2=O)N1 (stereo not shown) [Example 200] ... 1
CC(c1ccccc1)C1NC(=O)CNC(=O)C(CO)NC(=O)C(C(O)C2CN(CCCCCCCCCCCCO)C(=N)N2C2OC(CO)C(O)C(O)C2O)NC(=O)C(C(O)C2CNC(=N)N2)NC(=O)C(Cc2ccc(OC3OC(CO)C(OC4OC(CO)C(O)C(O)C4O)C(O)C3O)cc2)NC1=O (stereo not shown) [Example 61] ... 0

Determine if N=C1NCC(C(O)C2NC(=O)C(CC3CCC(OC4OC(CO)C(OC5OC6COC7(OC6C(O)C5O)C5CC6CC(C5)CC7C6)C(O)C4O)CC3)NC(=O)C(CC3CCCCC3)NC(=O)CNC(=O)C(CO)NC(=O)C(C(O)C3CNC(=N)N3C3OC(CO)C(O)C(O)C3O)NC2=O)N1 (single isomer, unassigned) [Example 223] shows MIC Staphylococcus aureus (GC 4541) strictly lower than 20 µg/mL. 0

Again, but for CC(c1ccccc1)C1NC(=O)CNC(=O)C(CO)NC(=O)C(C(O)C2CNC(=N)N2C2OC(CO)C(O)C(O)C2O)NC(=O)C(C(O)C2CNC(=N)N2)NC(=O)C(Cc2ccc3oc(C=C(c4ccccc4)c4ccccc4)nc3c2)NC1=O (stereo not shown) [Example 39] 1

====

- Test system: Streptococcus sp.
- testProtocol: in vitro antibacterial evaluation, MIC by broth dilution
- Format: cell-based
- runParameters: Streptococcus agalactiae (GC 4564); broth dilution, 18 hours at 35° C.
MIC Streptococcus agalactiae (GC 4564) values, listed per item
The reply should contain only the number, in µg/mL.

CC(c1ccccc1)C1NC(=O)CNC(=O)C(CO)NC(=O)C(C(O)C2CNC(=N)N2C2OC(CO)C(O)C(O)C2O)NC(=O)C(C(O)C2CNC(=N)N2)NC(=O)C(Cc2ccc(OC3OC(CO)C(OC4OC(COC(=O)OCc5ccccc5)C(O)C(O)C4O)C(O)C3O)cc2)NC1=O (stereo not shown) [Example 101a] ... 1

With those in mind, consider the next compound.
Using the record for CCC(CC)C1OCC2OC(OC3C(CO)OC(Oc4ccc(CC5NC(=O)C(C(C)c6ccccc6)NC(=O)CNC(=O)C(CO)NC(=O)C(C(O)C6CNC(=N)N6C6OC(CO)C(O)C(O)C6O)NC(=O)C(C(O)C6CNC(=N)N6)NC5=O)cc4)C(O)C3O)C(O)C(O)C2O1 (stereo not shown) [Example 116] , report its MIC Streptococcus agalactiae (GC 4564). 0.25

====

Listed compounds paired with reported MIC Coagulase Negative Staphylococcus (GC 4548)
- Tested on: Staphylococcus sp.
- testProtocol: in vitro antibacterial evaluation, MIC by broth dilution
- Type: cell-based
- runParameters: strain GC 4548; broth dilution, 18 hours at 35° C.
# number only, unit µg/mL dropped from output

Example compounds with recorded MIC Coagulase Negative Staphylococcus (GC 4548):
CCCCCCC(=O)Nc1cc(CC2NC(=O)C(C(C)c3ccccc3)NC(=O)CNC(=O)C(CO)NC(=O)C(C(O)C3CNC(=N)N3C3OC(CO)C(O)C(O)C3O)NC(=O)C(C(O)C3CNC(=N)N3)NC2=O)ccc1O (stereo not shown) ... 32
CC(c1ccccc1)C1NC(=O)CNC(=O)C(CO)NC(=O)C(C(O)C2CNC(=N)N2C2OC(CO)C(O)C(O)C2O)NC(=O)C(C(O)C2CNC(=N)N2)NC(=O)C(Cc2ccc(OC3OC(CO)C(OC4OC5COC6(CC(C)(C)CC(C)(C)C6)OC5C(O)C4O)C(O)C3O)cc2)NC1=O (stereo not shown) ... 0.5
Cc1ccc(Oc2cccc(-c3nc4cc(CC5NC(=O)C(C(C)c6ccccc6)NC(=O)CNC(=O)C(CO)NC(=O)C(C(O)C6CNC(=N)N6C6OC(CO)C(O)C(O)C6O)NC(=O)C(C(O)C6CNC(=N)N6)NC5=O)ccc4o3)c2)cc1 (stereo not shown) ... 4

Now for another entry.
Value lookup for MIC Coagulase Negative Staphylococcus (GC 4548); key = CC(c1ccccc1)C1NC(=O)CNC(=O)C(CO)NC(=O)C(C(O)C2CNC(=N)N2C2OC(CO)C(O)C(O)C2O)NC(=O)C(C(O)C2CNC(=N)N2)NC(=O)C(Cc2ccc3oc(-c4cccc(F)c4)nc3c2)NC1=O (stereo not shown) 4
